# protocol: Inhibition of yeast alpha-glucosidase after 15 mins
# Parameters: species or system Saccharomyces cerevisiae
quantity-kind: IC50 (µM)
Numbers only here, please. The scale is µM.

Sample records with IC50:
Query: Please give the documented IC50 of "C[C@@H]1CC[C@]2(C(=O)O)CC[C@]3(C)C(=CC[C@@H]4[C@@]5(C)[C@@H](O)[C@@H](O)[C@H](O)C(C)(C)[C@@H]5CC[C@]43C)[C@@H]2[C@]1(C)O"
Result: 1490

Query: Quick one: give measured IC50 for "CC1(C)CC[C@]2(C(=O)O)CC[C@]3(C)C(=CC[C@@H]4[C@@]5(C)C[C@@H](O)[C@H](O)[C@](C)(CO)[C@@H]5CC[C@]43C)[C@@H]2[C@@H]1O"
Result: 1370

Query: // fetch IC50 given entry C=C1[C@H]2C3=CC[C@@H]4[C@@]5(C)C[C@@H](O)[C@H](O)[C@@](C)(CO)[C@@H]5CC[C@@]4(C)[C@]3(C)CC[C@@]2(C(=O)O[C@@H]2O[C@H](CO)[C@@H](O)[C@H](O)[C@H]2O)CC[C@H]1C [QUADRANOSIDE VIII]
Result: 1850

Let us move to another entry and its IC50.
Query: Tell me measured IC50 for CC1=C2C3=CC[C@@H]4[C@@]5(C)C[C@@H](O)[C@@H](O)C(C)(C)[C@@H]5CC[C@@]4(C)[C@]3(C)CC[C@@]2(C(=O)O[C@@H]2O[C@H](CO)[C@@H](O)[C@H](O)[C@H]2O)CC[C@H]1C [RUBUSIDE B] please.
Result: 2840
